# measurement_conditions: 353.15 K; 101.33 kPa; Liquid; Vibrating tube method
Numbers after ± are expanded uncertainties.
readout_kind: mass density

The following molecules have reported results that may help.
CCC[n+]1cccc(C)c1.O=S(=O)([N-]S(=O)(=O)C(F)(F)F)C(F)(F)F : 1396.85 ± 80 kg/m3
C[n+]1ccn(CCCCS(=O)(=O)O)c1.O=S(=O)([O-])O [1-methyl-3-(4-sulfobutyl)-imidazolium hydrogensulfate] : 1401.8 ± 80 kg/m3
CC(O)C(=O)[O-].CCn1cc[n+](C)c1 [1-ethyl-3-methylimidazolium lactate] : 1105.14 ± 6.6 kg/m3

For C[n+]1ccn(CCCCS(=O)(=O)O)c1.O=S(=O)([N-]S(=O)(=O)C(F)(F)F)C(F)(F)F the molecule record lists mass density as 1532.23 ± 80 kg/m3
